These entries and their values trace back to paper PMC3508718.

# assay_protocol: Model-predicted AUCτ in BP and CVF and CVF:BP AUC ratios
# Format: in vivo, HIV-infected pre-menopausal women
# particulars: female, human, in vivo, 300 mg, CVF AUCτ
property_measured: AUC (ng·h/mL)
Quick note: give the figure in ng·h/mL, leave out the unit.

Item Nc1ccn([C@@H]2CS[C@H](CO)O2)c(=O)n1 [Lamivudine, lamivudine] has what recorded AUC?
62.2

###

# assay_protocol: Population pharmacokinetic co-modelling of blood plasma
# particulars: female, human, in vivo
property_measured: Vd (L)
Give the quantity in L, number only.

Param item = COC(=O)N[C@H](C(=O)N[C@@H](Cc1ccccc1)[C@@H](O)CN(Cc1ccc(-c2ccccn2)cc1)NC(=O)[C@@H](NC(=O)OC)C(C)(C)C)C(C)(C)C ; retrieve measured Vd.
10.4

###

# assay_protocol: Model-predicted AUCτ in BP and CVF and CVF:BP AUC ratios
# Assay type: in vivo, HIV-infected pre-menopausal women
# particulars: female, human, in vivo, 150 mg, BP AUCτ
property_measured: AUC (ng·h/mL)
Supply the numeric figure in ng·h/mL, leaving out any unit text.

Given Nc1ccn([C@@H]2CS[C@H](CO)O2)c(=O)n1 [Lamivudine, lamivudine] , state its recorded AUC.
3.86

###

In this section we review reported Kp values for a set of molecules.
# assay_protocol: Model-predicted AUCτ in BP and CVF and CVF:BP AUC ratios
# Format: in vivo, HIV-infected pre-menopausal women
# particulars: female, human, in vivo, CVF AUCτ:BP fAUCτ ratio
Answer using only a numeral; do not append any unit.

COC(=O)N[C@H](C(=O)N[C@@H](Cc1ccccc1)[C@@H](O)CN(Cc1ccc(-c2ccccn2)cc1)NC(=O)[C@@H](NC(=O)OC)C(C)(C)C)C(C)(C)C | 2.14

Please find the next molecule below.
Requested read-out: Kp. Entry: C[C@H](Cn1cnc2c(N)ncnc21)OCP(=O)(O)O
1.68

###

# assay_protocol: Population pharmacokinetic co-modelling of blood plasma
# particulars: female, human, cervicovaginal fluid, oral
property_measured: Vd (L)
Express the result in L but write the number alone.

Bench note: what Vd did O=C1Nc2ccc(Cl)cc2[C@@](C#CC2CC2)(C(F)(F)F)O1 show?
2.55

###

# assay_protocol: Model-predicted AUCτ in BP and CVF and CVF:BP AUC ratios
# Type: in vivo, HIV-infected pre-menopausal women
# particulars: female, human, in vivo, CVF AUCτ
property_measured: AUC (ng·h/mL)
The reply should contain only the number, in ng·h/mL.

I have this compound here, C[C@H](Cn1cnc2c(N)ncnc21)OCP(=O)(O)O , and I need its recorded AUC.
4.18

###

# assay_protocol: Model-predicted AUCτ in BP and CVF and CVF:BP AUC ratios
# Type: in vivo, HIV-infected pre-menopausal women
# particulars: female, human, in vivo, CVF AUCτ, first dose; median (25th, 75th percentiles); model-predicted
property_measured: AUC (ng·h/mL)
# value in ng·h/mL; strip the unit string

Quick one: AUC for COC(=O)N[C@H](C(=O)N[C@@H](Cc1ccccc1)[C@@H](O)CN(Cc1ccc(-c2ccccn2)cc1)NC(=O)[C@@H](NC(=O)OC)C(C)(C)C)C(C)(C)C ?
5.66

###

Listed compounds paired with reported Kp
# assay_protocol: Model-predicted AUCτ in BP and CVF and CVF:BP AUC ratios
# Format: in vivo, HIV-infected pre-menopausal women
# particulars: female, human, in vivo, CVF AUCτ:BP AUCτ ratio
Form: value (number only, do not type unit).

Give the measured Kp of O=C1Nc2ccc(Cl)cc2[C@@](C#CC2CC2)(C(F)(F)F)O1 .
0.00527

Try the compound COC(=O)N[C@H](C(=O)N[C@@H](Cc1ccccc1)[C@@H](O)CN(Cc1ccc(-c2ccccn2)cc1)NC(=O)[C@@H](NC(=O)OC)C(C)(C)C)C(C)(C)C
0.299

Same question for C[C@H](Cn1cnc2c(N)ncnc21)OCP(=O)(O)O please.
1.57
